- Tested on: U2OS
- MEASUREMENT PROTOCOL: Antiproliferative activity against human U2OS cells after 3 days by MTS assay
- Format: functional, cell-based
- EXPERIMENTAL PARAMETERS: 72 h
pIC50: −log10 of the molar value.

TEST SMILES	MEASURED TARGET	SIGN	pIC50
COc1ncnc2c1c1ccn(C)c1n2[C@@H]1O[C@H](CO)[C@@H](O)[C@H]1O	U2OS	<	4.30
OC[C@H]1O[C@@H](n2c3ccoc3c3c(-c4cc5ccccc5o4)ncnc32)[C@H](O)[C@@H]1O	U2OS	=	4.42
OC[C@H]1O[C@@H](n2c3ccoc3c3c(-c4ccoc4)ncnc32)[C@H](O)[C@@H]1O	U2OS	=	6.19
Nc1ncnc2c1c(-c1cccs1)cn2[C@@H]1O[C@H](CO)[C@@H](O)[C@H]1O	U2OS	=	6.29
Cc1ncnc2c1c1ccn(C)c1n2[C@@H]1O[C@H](CO)[C@@H](O)[C@H]1O	U2OS	<	4.30
CN(C)c1ncnc2c1c1c(ccn1C)n2[C@@H]1O[C@H](CO)[C@@H](O)[C@H]1O	U2OS	<	4.30
Cn1ccc2c1c1c(N)ncnc1n2[C@@H]1O[C@H](CO)[C@@H](O)[C@H]1O	U2OS	=	4.30
COc1ncnc2c1c1c(ccn1C)n2[C@@H]1O[C@H](CO)[C@@H](O)[C@H]1O	U2OS	=	5.89
Nc1ncnc2c1c1occc1n2[C@@H]1O[C@H](CO)[C@@H](O)[C@H]1O	U2OS	=	5.15
Cn1ccc2c1c1c(-c3ccoc3)ncnc1n2[C@@H]1O[C@H](CO)[C@@H](O)[C@H]1O	U2OS	=	5.62
Cn1ccc2c3c(-c4cc5ccccc5o4)ncnc3n([C@@H]3O[C@H](CO)[C@@H](O)[C@H]3O)c21	U2OS	=	4.54
Cn1ccc2c1c1c(-c3cc4ccccc4o3)ncnc1n2[C@@H]1O[C@H](CO)[C@@H](O)[C@H]1O	U2OS	=	4.36
COc1ncnc2c1c1occc1n2[C@@H]1O[C@H](CO)[C@@H](O)[C@H]1O	U2OS	=	6.37
CN(C)c1ncnc2c1c1occc1n2[C@@H]1O[C@H](CO)[C@@H](O)[C@H]1O	U2OS	<	4.30
CN(C)c1ncnc2c1c1ccn(C)c1n2[C@@H]1O[C@H](CO)[C@@H](O)[C@H]1O	U2OS	<	4.30
Cc1ncnc2c1c1occc1n2[C@@H]1O[C@H](CO)[C@@H](O)[C@H]1O	U2OS	=	6.24
Cc1ncnc2c1c1c(ccn1C)n2[C@@H]1O[C@H](CO)[C@@H](O)[C@H]1O	U2OS	=	6.21
Cn1ccc2c1c1c(-c3ccco3)ncnc1n2[C@@H]1O[C@H](CO)[C@@H](O)[C@H]1O	U2OS	=	5.13

* * *

- MEASUREMENT PROTOCOL: Chemical stability of the compound assessed as compound remaining after 60 mins relative to control
- Format: physicochemical
- EXPERIMENTAL PARAMETERS: read-out: Stability

TEST SMILES	UNIT OF MEASUREMENT	remaining at 1 h
Cc1ncnc2c1c1c(ccn1C)n2[C@@H]1O[C@H](CO)[C@@H](O)[C@H]1O	%	93
CSc1ncnc2c1c1occc1n2[C@@H]1O[C@H](CO)[C@@H](O)[C@H]1O	%	99
CSc1ncnc2c1c1c(ccn1C)n2[C@@H]1O[C@H](CO)[C@@H](O)[C@H]1O	%	98
Cc1ncnc2c1c1occc1n2[C@@H]1O[C@H](CO)[C@@H](O)[C@H]1O	%	99

* * *

- System: U2OS
- MEASUREMENT PROTOCOL: Antiproliferative activity against human U2OS cells after 3 days by MTS assay
- Format: functional, cell-based
- EXPERIMENTAL PARAMETERS: 72 h
Entries and their IC50 values follow.
VALUE KIND: IC50 (µM)

TEST SMILES	SIGN	QUANTITATIVE RESULT
CSc1ncnc2c1c1occc1n2[C@@H]1O[C@H](CO)[C@@H](O)[C@H]1O	=	0.34
Cn1ccc2c3c(N)ncnc3n([C@@H]3O[C@H](CO)[C@@H](O)[C@H]3O)c21	>	50
CSc1ncnc2c1c1ccn(C)c1n2[C@@H]1O[C@H](CO)[C@@H](O)[C@H]1O	=	27.4
Cn1ccc2c3c(Cl)ncnc3n([C@@H]3O[C@H](CO)[C@@H](O)[C@H]3O)c21	>	50
OC[C@H]1O[C@@H](n2c3ccoc3c3c(-c4ccco4)ncnc32)[C@H](O)[C@@H]1O	=	4.21

* * *

Entries and their pEC50 values follow.
- System: Hepatitis C virus
- MEASUREMENT PROTOCOL: Antiviral activity against Hepatitis C virus genotype 1b infected in human Huh-luc replicon cells after 3 days by luciferase assay
- Assay type: functional, organism-based, Hepacivirus hominis
- EXPERIMENTAL PARAMETERS: subtype 1b, 72 h
pEC50: −log10 of the molar value.

TEST SMILES	MEASURED TARGET	SIGN	pEC50
Cn1ccc2c1c1c(-c3cc4ccccc4o3)ncnc1n2[C@@H]1O[C@H](CO)[C@@H](O)[C@H]1O	Hepatitis C virus	=	5.80
OC[C@H]1O[C@@H](n2c3ccoc3c3c(-c4ccoc4)ncnc32)[C@H](O)[C@@H]1O	Hepatitis C virus	=	6.11
Cn1ccc2c3c(Cl)ncnc3n([C@@H]3O[C@H](CO)[C@@H](O)[C@H]3O)c21	Hepatitis C virus	=	4.44
CN(C)c1ncnc2c1c1ccn(C)c1n2[C@@H]1O[C@H](CO)[C@@H](O)[C@H]1O	Hepatitis C virus	<	4.35
Nc1ncnc2c1c1occc1n2[C@@H]1O[C@H](CO)[C@@H](O)[C@H]1O	Hepatitis C virus	=	6.52
CN(C)c1ncnc2c1c1c(ccn1C)n2[C@@H]1O[C@H](CO)[C@@H](O)[C@H]1O	Hepatitis C virus	<	4.35
OC[C@H]1O[C@@H](n2c3ccoc3c3c(-c4cc5ccccc5o4)ncnc32)[C@H](O)[C@@H]1O	Hepatitis C virus	=	5.27
OC[C@H]1O[C@@H](n2c3ccoc3c3c(-c4ccco4)ncnc32)[C@H](O)[C@@H]1O	Hepatitis C virus	=	6.77
Cn1ccc2c1c1c(N)ncnc1n2[C@@H]1O[C@H](CO)[C@@H](O)[C@H]1O	Hepatitis C virus	=	6.34
Cn1ccc2c3c(-c4cc5ccccc5o4)ncnc3n([C@@H]3O[C@H](CO)[C@@H](O)[C@H]3O)c21	Hepatitis C virus	=	5.11
Cn1ccc2c1c1c(-c3ccco3)ncnc1n2[C@@H]1O[C@H](CO)[C@@H](O)[C@H]1O	Hepatitis C virus	=	6.66
Cn1ccc2c1c1c(Cl)ncnc1n2[C@@H]1O[C@H](CO)[C@@H](O)[C@H]1O	Hepatitis C virus	=	6.43
CN(C)c1ncnc2c1c1occc1n2[C@@H]1O[C@H](CO)[C@@H](O)[C@H]1O	Hepatitis C virus	<	4.35
CSc1ncnc2c1c1ccn(C)c1n2[C@@H]1O[C@H](CO)[C@@H](O)[C@H]1O	Hepatitis C virus	=	5.22
CSc1ncnc2c1c1c(ccn1C)n2[C@@H]1O[C@H](CO)[C@@H](O)[C@H]1O	Hepatitis C virus	=	7.40
Cn1ccc2c1c1c(-c3ccoc3)ncnc1n2[C@@H]1O[C@H](CO)[C@@H](O)[C@H]1O	Hepatitis C virus	=	4.69
CSc1ncnc2c1c1occc1n2[C@@H]1O[C@H](CO)[C@@H](O)[C@H]1O	Hepatitis C virus	=	6.55
Cc1ncnc2c1c1ccn(C)c1n2[C@@H]1O[C@H](CO)[C@@H](O)[C@H]1O	Hepatitis C virus	<	4.35

* * *

- MEASUREMENT PROTOCOL: Effective permeability of the compound at 20 umol/L by PAMPA
- Assay type: ADME
- EXPERIMENTAL PARAMETERS: 20 µM

TEST SMILES	log(permeability)
Cc1ncnc2c1c1c(ccn1C)n2[C@@H]1O[C@H](CO)[C@@H](O)[C@H]1O	-6.87
Cc1ncnc2c1c1occc1n2[C@@H]1O[C@H](CO)[C@@H](O)[C@H]1O	-6.88
CSc1ncnc2c1c1c(ccn1C)n2[C@@H]1O[C@H](CO)[C@@H](O)[C@H]1O	-5.69
CSc1ncnc2c1c1occc1n2[C@@H]1O[C@H](CO)[C@@H](O)[C@H]1O	-5.99

* * *

- Test system: HCT-116
- MEASUREMENT PROTOCOL: Antiproliferative activity against human HCT116 cells after 3 days by MTS assay
- Type: functional, cell-based
- EXPERIMENTAL PARAMETERS: HCT-116, 72 h

TEST SMILES	SIGN	IC50, µM
Cn1ccc2c1c1c(N)ncnc1n2[C@@H]1O[C@H](CO)[C@@H](O)[C@H]1O	>	50
Cn1ccc2c3c(Cl)ncnc3n([C@@H]3O[C@H](CO)[C@@H](O)[C@H]3O)c21	>	50
Cn1ccc2c3c(-c4ccoc4)ncnc3n([C@@H]3O[C@H](CO)[C@@H](O)[C@H]3O)c21	>	50
OC[C@H]1O[C@@H](n2c3ccoc3c3c(-c4cc5ccccc5o4)ncnc32)[C@H](O)[C@@H]1O	=	48.8
Cc1ncnc2c1c1c(ccn1C)n2[C@@H]1O[C@H](CO)[C@@H](O)[C@H]1O	=	0.33
